A set of compounds tested on Signal transducer and activator of transcription 6 (Homo sapiens), with measured pKi:
Please keep in mind that pKi is minus log10 of the molar concentration; only the number is needed.

Query block: Give Signal transducer and activator of transcription 6 (Homo sapiens) pKi for "O=C(N[C@@H](Cc1ccccc1)C(=O)N1CCC[C@H]1C(=O)N1CCO[C@H](c2ccccc2)C1)c1cc2cc(C(F)(F)P(=O)(O)O)ccc2s1"
Result block: 6.47

----------
- ASSAY REMARKS: Stability in rat plasma assessed as parent compound remaining measured at 60 mins by LC-MS/MS analysis
- Type: ADME, cell-free
- TEST SETTINGS: read-out: Stability
OBSERVATION TYPE: remaining at 1 h (%)
Record the value in %, omitting the unit from your answer.

Query block: // remaining at 1 h lookup, key: CC(C)(C)[C@H](NC(=O)c1cc2cc(C(F)(F)P(=O)(O)O)ccc2s1)C(=O)N1C[C@@H](OCCCCCC#Cc2cccc3c2CN(C2CCC(=O)NC2=O)C3=O)C[C@H]1C(=O)N1CCO[C@H](c2ccccc2)C1 (stereo partly specified)
Result block: 91

----------
- ASSAY REMARKS: Metabolic stability in human liver microsome assessed as parent compound remaining measured at 45 mins in presence of NADPH by LC-MS/MS analysis
- Assay type: ADME
- TEST SETTINGS: liver microsomes, read-out: Stability
OBSERVATION TYPE: remaining at 0.75 h (%)
Record the value in %, omitting the unit from your answer.

Query block: // remaining at 0.75 h lookup, key: CC(C)(C)[C@H](NC(=O)c1cc2cc(C(F)(F)P(=O)(O)O)ccc2s1)C(=O)N1C[C@@H](OCCCCCC#Cc2cccc3c2CN(C2CCC(=O)NC2=O)C3=O)C[C@H]1C(=O)N1CCO[C@H](c2ccccc2)C1 (stereo partly specified)
Result block: 91

----------
- ASSAY REMARKS: Stability in monkey plasma assessed as parent compound remaining measured at 15 mins by LC-MS/MS analysis
- Assay type: ADME, cell-free, Macaca mulatta
- TEST SETTINGS: rhesus monkey, read-out: Stability
OBSERVATION TYPE: remaining at 0.25 h (%)
Record the value in %, omitting the unit from your answer.

Query block: // remaining at 0.25 h lookup, key: CC(C)(C)[C@H](NC(=O)c1cc2cc(C(F)(F)P(=O)(O)O)ccc2s1)C(=O)N1C[C@@H](OCCCCCC#Cc2cccc3c2CN(C2CCC(=O)NC2=O)C3=O)C[C@H]1C(=O)N1CCO[C@H](c2ccccc2)C1 (stereo partly specified)
Result block: 111

----------
- ASSAY REMARKS: Metabolic stability in rat liver microsome assessed as parent compound remaining measured at 30 mins in presence of NADPH by LC-MS/MS analysis
- Format: ADME
- TEST SETTINGS: liver microsomes, read-out: Stability
OBSERVATION TYPE: remaining at 0.5 h
Kindly format the answer as number then unit.

Query block: // remaining at 0.5 h lookup, key: CC(C)(C)[C@H](NC(=O)c1cc2cc(C(F)(F)P(=O)(O)O)ccc2s1)C(=O)N1C[C@@H](OCCCCCC#Cc2cccc3c2CN(C2CCC(=O)NC2=O)C3=O)C[C@H]1C(=O)N1CCO[C@H](c2ccccc2)C1 (stereo partly specified)
Result block: 96%

----------
- ASSAY REMARKS: Stability in rat plasma assessed as parent compound remaining measured at 5 mins by LC-MS/MS analysis
- Format: ADME, cell-free
- TEST SETTINGS: read-out: Stability
OBSERVATION TYPE: remaining at 5 min (%)
Record the value in %, omitting the unit from your answer.

Query block: // remaining at 5 min lookup, key: CC(C)(C)[C@H](NC(=O)c1cc2cc(C(F)(F)P(=O)(O)O)ccc2s1)C(=O)N1C[C@@H](OCCCCCC#Cc2cccc3c2CN(C2CCC(=O)NC2=O)C3=O)C[C@H]1C(=O)N1CCO[C@H](c2ccccc2)C1 (stereo partly specified)
Result block: 86

----------
- ASSAY REMARKS: Metabolic stability in mouse liver microsome assessed as parent compound remaining measured at 45 mins in presence of NADPH by LC-MS/MS analysis
- Type: ADME
- TEST SETTINGS: liver microsomes, read-out: Stability
OBSERVATION TYPE: remaining at 0.75 h (%)
Record the value in %, omitting the unit from your answer.

Query block: // remaining at 0.75 h lookup, key: CC(C)(C)[C@H](NC(=O)c1cc2cc(C(F)(F)P(=O)(O)O)ccc2s1)C(=O)N1C[C@@H](OCCCCCC#Cc2cccc3c2CN(C2CCC(=O)NC2=O)C3=O)C[C@H]1C(=O)N1CCO[C@H](c2ccccc2)C1 (stereo partly specified)
Result block: 92

----------
- ASSAY REMARKS: Stability in rat plasma assessed as half life measured upto 60 mins by LC-MS/MS analysis
- Format: ADME, cell-free
OBSERVATION TYPE: half-life

Query block: // half-life lookup, key: CC(C)(C)[C@H](NC(=O)c1cc2cc(C(F)(F)P(=O)(O)O)ccc2s1)C(=O)N1C[C@@H](OCCCCCC#Cc2cccc3c2CN(C2CCC(=O)NC2=O)C3=O)C[C@H]1C(=O)N1CCO[C@H](c2ccccc2)C1 (stereo partly specified)
Result block: > 2 h

----------
- ASSAY REMARKS: Metabolic stability in mouse liver microsome assessed as half life measured upto 60 mins in presence of NADPH by LC-MS/MS analysis
- Format: ADME
- TEST SETTINGS: liver microsomes
OBSERVATION TYPE: half-life

Query block: // half-life lookup, key: CC(C)(C)[C@H](NC(=O)c1cc2cc(C(F)(F)P(=O)(O)O)ccc2s1)C(=O)N1C[C@@H](OCCCCCC#Cc2cccc3c2CN(C2CCC(=O)NC2=O)C3=O)C[C@H]1C(=O)N1CCO[C@H](c2ccccc2)C1 (stereo partly specified)
Result block: > 2 h

----------
- ASSAY REMARKS: Stability in human plasma assessed as parent compound remaining measured at 30 mins by LC-MS/MS analysis
- Type: ADME, cell-free
- TEST SETTINGS: read-out: Stability
OBSERVATION TYPE: remaining at 0.5 h
Kindly format the answer as number then unit.

Query block: // remaining at 0.5 h lookup, key: CC(C)(C)[C@H](NC(=O)c1cc2cc(C(F)(F)P(=O)(O)O)ccc2s1)C(=O)N1C[C@@H](OCCCCCC#Cc2cccc3c2CN(C2CCC(=O)NC2=O)C3=O)C[C@H]1C(=O)N1CCO[C@H](c2ccccc2)C1 (stereo partly specified)
Result block: 82%

----------
- ASSAY REMARKS: Stability in dog plasma assessed as parent compound remaining measured at 120 mins by LC-MS/MS analysis
- Type: ADME, cell-free, Canis lupus familiaris
- TEST SETTINGS: read-out: Stability
OBSERVATION TYPE: remaining at 2 h (%)
Record the value in %, omitting the unit from your answer.

Query block: // remaining at 2 h lookup, key: CC(C)(C)[C@H](NC(=O)c1cc2cc(C(F)(F)P(=O)(O)O)ccc2s1)C(=O)N1C[C@@H](OCCCCCC#Cc2cccc3c2CN(C2CCC(=O)NC2=O)C3=O)C[C@H]1C(=O)N1CCO[C@H](c2ccccc2)C1 (stereo partly specified)
Result block: 67

----------
- ASSAY REMARKS: Metabolic stability in rat liver microsome assessed as parent compound remaining measured at 45 mins in presence of NADPH by LC-MS/MS analysis
- Type: ADME
- TEST SETTINGS: liver microsomes, read-out: Stability
OBSERVATION TYPE: remaining at 0.75 h (%)
Record the value in %, omitting the unit from your answer.

Query block: // remaining at 0.75 h lookup, key: CC(C)(C)[C@H](NC(=O)c1cc2cc(C(F)(F)P(=O)(O)O)ccc2s1)C(=O)N1C[C@@H](OCCCCCC#Cc2cccc3c2CN(C2CCC(=O)NC2=O)C3=O)C[C@H]1C(=O)N1CCO[C@H](c2ccccc2)C1 (stereo partly specified)
Result block: 90

----------
- ASSAY REMARKS: Metabolic stability in mouse liver microsome assessed as parent compound remaining measured at 15 mins in presence of NADPH by LC-MS/MS analysis
- Type: ADME
- TEST SETTINGS: liver microsomes, read-out: Stability
OBSERVATION TYPE: remaining at 0.25 h (%)
Record the value in %, omitting the unit from your answer.

Query block: // remaining at 0.25 h lookup, key: CC(C)(C)[C@H](NC(=O)c1cc2cc(C(F)(F)P(=O)(O)O)ccc2s1)C(=O)N1C[C@@H](OCCCCCC#Cc2cccc3c2CN(C2CCC(=O)NC2=O)C3=O)C[C@H]1C(=O)N1CCO[C@H](c2ccccc2)C1 (stereo partly specified)
Result block: 98

----------
- TGT: Protein cereblon/Signal transducer and activator of transcription 6 (Homo sapiens, UniProt P42226+Q96SW2)
- Sequence (P42226 whole entry): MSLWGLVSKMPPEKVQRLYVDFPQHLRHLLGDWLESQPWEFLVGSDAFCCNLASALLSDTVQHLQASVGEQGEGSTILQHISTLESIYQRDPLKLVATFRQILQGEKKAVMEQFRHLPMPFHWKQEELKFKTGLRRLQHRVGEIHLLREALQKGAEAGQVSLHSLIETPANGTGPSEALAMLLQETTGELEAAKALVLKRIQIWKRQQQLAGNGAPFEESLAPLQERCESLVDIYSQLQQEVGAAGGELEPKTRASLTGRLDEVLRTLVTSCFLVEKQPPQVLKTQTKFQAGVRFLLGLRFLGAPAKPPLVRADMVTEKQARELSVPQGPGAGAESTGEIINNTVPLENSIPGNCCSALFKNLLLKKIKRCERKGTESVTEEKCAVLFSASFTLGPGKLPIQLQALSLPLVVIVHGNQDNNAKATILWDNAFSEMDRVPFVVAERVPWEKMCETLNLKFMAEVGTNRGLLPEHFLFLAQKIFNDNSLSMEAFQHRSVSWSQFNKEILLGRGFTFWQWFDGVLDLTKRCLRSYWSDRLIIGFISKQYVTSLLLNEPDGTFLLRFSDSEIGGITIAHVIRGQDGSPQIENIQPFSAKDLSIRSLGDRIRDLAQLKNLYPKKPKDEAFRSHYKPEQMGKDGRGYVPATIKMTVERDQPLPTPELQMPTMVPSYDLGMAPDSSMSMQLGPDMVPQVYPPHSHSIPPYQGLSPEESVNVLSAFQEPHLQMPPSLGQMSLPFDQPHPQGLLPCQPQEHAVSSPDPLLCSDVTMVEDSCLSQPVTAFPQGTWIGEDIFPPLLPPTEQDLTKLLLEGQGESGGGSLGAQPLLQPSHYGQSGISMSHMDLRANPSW
- Sequence (Q96SW2 whole entry): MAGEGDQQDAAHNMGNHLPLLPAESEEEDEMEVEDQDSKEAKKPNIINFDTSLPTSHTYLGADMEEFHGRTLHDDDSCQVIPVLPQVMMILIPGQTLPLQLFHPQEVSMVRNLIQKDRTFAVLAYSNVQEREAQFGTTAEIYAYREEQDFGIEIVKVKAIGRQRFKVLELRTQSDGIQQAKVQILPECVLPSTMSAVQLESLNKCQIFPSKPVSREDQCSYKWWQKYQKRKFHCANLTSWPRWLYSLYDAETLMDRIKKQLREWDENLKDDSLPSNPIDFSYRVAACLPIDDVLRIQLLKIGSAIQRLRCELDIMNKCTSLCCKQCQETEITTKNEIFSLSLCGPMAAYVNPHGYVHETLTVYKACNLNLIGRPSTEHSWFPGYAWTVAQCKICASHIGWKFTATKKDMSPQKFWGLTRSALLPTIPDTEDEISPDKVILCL
- ASSAY REMARKS: PROTAC activity at STAT6/CRBN in human MV4-11 cells assessed as reduction in STAT6 level incubated for 12 hrs by Western blot analysis
- Assay type: cell-based
DC50 reference
Record the value in nM, omitting the unit from your answer.

COMPOUND	DC50, nM
CC(C)(C)[C@H](NC(=O)c1cc2cc(C(F)(F)P(=O)(O)O)ccc2s1)C(=O)N1C[C@@H](NC(=O)CCCCCCC#Cc2cccc3c2CN(C2CCC(=O)NC2=O)C3=O)C[C@H]1C(=O)N1CCO[C@H](c2ccccc2)C1 (stereo partly drawn)	250

Query block: // DC50 lookup, key: CC(C)(C)[C@H](NC(=O)c1cc2cc(C(F)(F)P(=O)(O)O)ccc2s1)C(=O)N1C[C@@H](NC(=O)CCCCCC#Cc2ccc3c(c2)CN(C2CCC(=O)NC2=O)C3=O)C[C@H]1C(=O)N1CCO[C@H](c2ccccc2)C1 (stereo partly drawn)
Result block: 200

Query block: // DC50 lookup, key: CC(C)(C)[C@H](NC(=O)c1cc2cc(C(F)(F)P(=O)(O)O)ccc2s1)C(=O)N1C[C@H](OCCCCCC#Cc2cccc3c2CN(C2CCC(=O)NC2=O)C3=O)C[C@H]1C(=O)N1CCO[C@H](c2ccccc2)C1 (stereo partly drawn)
Result block: 130
